Entries and their measured Tmax follow.
- EXPERIMENTAL DETAILS: Tmax in Sprague-Dawley rat at 10 mg/kg, po measured upto 24 hrs LC-MS/MS analysis
- Format: ADME, organism-based
- MEASUREMENT PARAMETERS: in vivo
Express the result in h but write the number alone.

Ask: Tmax lookup needed for `Cc1nc(-c2ccc(CSSC(C)(C)C)cc2)ncc1C(=O)N[C@@H](CCN)C(=O)N(C)[C@@H]1C(=O)N[C@@H](C)C(=O)N[C@H](C(=O)NCC#N)Cc2ccc(OCCN)c(c2)-c2cc1ccc2OCCN` , thanks.
Reply: 3.33

Read the next record carefully.
Ask: Can you share its Tmax? I mean this compound: `Cc1nc(-c2ccc(C(C)(C)C)cc2)ncc1C(=O)N[C@@H](CCN)C(=O)N(C)[C@@H]1C(=O)N[C@@H](C)C(=O)N[C@H](C(=O)NCC#N)Cc2ccc(OCCN)c(c2)-c2cc1ccc2OCCN.Cl.Cl.Cl.Cl`
Reply: 1.17
